Could you please report measured apparent KD of K4 kissing-loop reporter for the items listed next?
System: K4 kissing-loop RNA reporter
assay.text: apparent KD of K4 kissing-loop reporter; higher = weaker reporter binding
condition.details: Eterna round: R107; input ligand: none
Return type: number; implicit unit nM.

Write down apparent KD of K4 kissing-loop reporter measured for item GGAUAGGACUGAGGAUAUGGUAGUGAUGUUACCAAACUGGUUAAACAUGUCAGAAAACUGGCAUGACCAGAAGGCGGUCCUAUCG [FmnBX 27 U10+G76]
72.5

Check the records and state apparent KD of K4 kissing-loop reporter for ACGGAUUCGAAUACCGAAUGAAAUAGGGAUACCAGCACGUGAACGUGCCCUUGGCAGCCCAGCCCAGUGAUGUUGGGCCCAUGGC [Biso]
179

Tell me measured apparent KD of K4 kissing-loop reporter for GAGGUACAGCUGGCCGUCGAAUUGUCCGAUACCAGACACUCUCUAGUCCCUUGGCAGCGGUGGUAAGUGAUGUUUACAGGCGCCG [theeternabot_exclusion_KL_Theo_A_3] please.
147

Return apparent KD of K4 kissing-loop reporter for the following sequence: GAGAUAGAGGCGGCCGCCACUAGUGAUGUUAGUGAUGUUAGAAAGAGAAUAGAACAGGGAUUAGAUAGGACCGGGCCAGAUGGAG [vvhmullin]
60.4

Give apparent KD of K4 kissing-loop reporter for the following sequence: GUACCUUGGAAACAAGGACAGCUAACCGAAGGAGCGCGUGAAAACGCAGGUAGGUCGCGGUAGCGGAGUGAUGUUCCGCGAGAGC [Same State Arginine A GF 19]
88.8

Assign apparent KD of K4 kissing-loop reporter to the following record: AGCGAGAUACUUGUCUAGUAUACUACAGAUACCAGACAAGUACUAGUCCCUUGGCAGCUGUAGAUCGAGUGAUGUUCGAGUCGCU [Theo A SS t1]
516

---

Tested on: K4 kissing-loop RNA reporter
assay.text: apparent KD of K4 kissing-loop reporter; higher = weaker reporter binding
condition.details: Eterna round: R107; input ligand: FMN 200 uM
readout: apparent KD of K4 kissing-loop reporter (µM)
Kindly provide the numeric value in µM only, without the unit symbol.

Give me measured apparent KD of K4 kissing-loop reporter, please, for this sequence: AGAUUCGACACGGCCGCCACUCGUGGUGGAUUACCGAGUGUCGAAGUUGAGUGAUGUUCAAGUACGAGGACCGGGUGUUGAGUCU [KL-XTryp-B9 #analogue]
0.193

Specify reported apparent KD of K4 kissing-loop reporter for the sequence shown: GCCGUAGAUUGAAGGAGCGCCUUCUUACCAAGAGUGAUGUUCUUAGGUACCAUGUUCAGUAGGCAGGUAGGUCGCAAUCUACGGC
0.499

Name the recorded apparent KD of K4 kissing-loop reporter of the item UGUACCGAGUCAGGAUAUGGCGUCGAAAGACGAAUCUUAGUGAUGUUAGGGAUCUGCGAAAGCAGUUCAGAAGGGACUUGGUACU [FmnBS 26 U37+U67] in your answer.
0.349

Supply apparent KD of K4 kissing-loop reporter value. Item: UGUAUGUGUCAGCGAGUGAUGUUCGACGAUACCAGACUCGAUAGAGUCCCUUGGCAGCGUAAUGCAUGCCAACUGGCACAUACUA [#SwitchBubble 12 #K4Early]
0.745

Name the recorded apparent KD of K4 kissing-loop reporter of the item GCCGUAGAUCGAAGGAGCGUGCAAGAAUCGUAGUGAUGUUACGGAGAGUGUCACGCCGUCGCACAGGUAGGUCGCGAUCUACGGC in your answer.
0.071

Could you please provide reported apparent KD of K4 kissing-loop reporter for UUAGAAGUAUACUUCAAGAGGUAUGCUGAUACCAGAGUCAAUUGACUCCCUUGGCAGCGGAUCGAGUGAUGUUCGUAACCUCAUU [AK3.1 SS Theophylline A] ? Thanks!
0.16

---

Test system: K4 kissing-loop RNA reporter
assay.text: apparent KD of K4 kissing-loop reporter; higher = weaker reporter binding
condition.details: Eterna round: R107; input ligand: theophylline 20 uM
readout: apparent KD of K4 kissing-loop reporter (nM)
Dear colleague, please return just the value in nM, with no unit written.

Identify measured apparent KD of K4 kissing-loop reporter associated with AUGUUGAGCGGAAGGAGCGGCUGAGCCAGUGAUGUUGGUUAAUCCAAGUGAUGUUGGAAAAGCCAGGUAGGUCGCCGCUUUACGU [whbob_SS_Arginine_B_2t144]
926

Tell me apparent KD of K4 kissing-loop reporter reported for UCUGGUAUAUCUGAUACCAGAGUAUAGUAUCAAUUGCAUAUGGAGUGAUGUUCCAUAUAACUCCCUUGGCAGCAGAUCUAUCUCU [Same State Theophylline B GF 25]
386

Please supply the value of reported apparent KD of K4 kissing-loop reporter for the item CAACAGCUUACGGCCGCCACUCCUUUAUAUGGUGCGCACCGUUGAGCUCUAGUGAUGUUGGUGCCGAGGACCGGGUAGGAAAGUA [theeternabot_sameState_KL_Trp_B_31]
448

---

Tested on: K4 kissing-loop RNA reporter;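 note: bound reporter read as fluorescence of individual clusters on recovered sequencing chips by microscopy, with normalized cluster intensities fitted with a binding model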
assay.text: apparent KD of K4 kissing-loop reporter; higher = weaker reporter binding
condition.details: Eterna round: R107; input ligand: tryptophan 2.4 mM
Each entry gets Condition not met if its apparent KD of K4 kissing-loop reporter stays under 400 nM, and Condition met if its apparent KD of K4 kissing-loop reporter is 400 nM or above.

Dear colleague, could you confirm whether AUGUUGAGCGGAAGGAGCGGCUGAGCCAGUGAUGUUGGUUAAUCCAAGUGAUGUUGGAAAAGCCAGGUAGGUCGCCGCUUUACGU [whbob_SS_Arginine_B_2t144] has apparent KD of K4 kissing-loop reporter at or above 400 nM?
Condition met

hey, is apparent KD of K4 kissing-loop reporter for this one >= 400 nM? UGGUUUAACUGAAGGAGCGGCAAUUGAUAAGUAAAUAUAGUGAUGUUAUAUAAGAUAGAGAGCCAGGUAGGUCGCAGAGGUAUUU [ExArgB.O]
Condition not met

Kindly determine if apparent KD of K4 kissing-loop reporter recorded for UGAUACCAGACGGCCGCCACUCCUGCAGUCAAAGACUGCAAGGAAAUAUUCGUCCAGUGAUGUUGGAGGACCGGGUCUGGUAUCU [TrypBX 9 #SwitchBubble #Palindromic #StaticStem] is above or exactly 400 nM.
Condition met

Assess whether reported apparent KD of K4 kissing-loop reporter for AUAUUGGUUGAGAGUGAUGUUCCUUGUGUUCGAGGACCGGUACGGCCGCCACUCGGGUAGAAAAUAAAAGAUAUGUUUGAUUUUU [BDazzled - #12 SS Tryptophan A] sits at 400 nM or higher.
Condition not met

Determine whether measured apparent KD of K4 kissing-loop reporter meets or exceeds 400 nM for UGAUAGGACAGAAGGAGCGGAGGUCGUCAAAGACGACCAAUAACGUUGAUAGGAGUGAUGUUCCAGGUAGGUCGCUGUCCUAUCU [ArgBX 29 #SwitchBubble #StaticStem]
Condition not met

Please check the record CGAGUGAUGUUCGAAGAGUUGUUAAGCGAUACCAGCUAGGAGACUGGCCCUUGGCAGCGUAAUAAGUUAAUAAAUAAAUGAUCAC [whbob_Ex_Theo_A_th65] and state if its apparent KD of K4 kissing-loop reporter is at or above 400 nM.
Condition not met

Evaluate UCCUAGGCUCGAAAGAGCCUAGGUAAGACUCAGGAUAUCUGGAAACAGAGAAGGGAGCUACUAGUGAUGUUAGGAAUUCCCUAAG : apparent KD of K4 kissing-loop reporter at minimum 400 nM?
Condition not met

Check this sequence for apparent KD of K4 kissing-loop reporter at or above 400 nM: CCUAUCUCAUACGAUACCAGUCCGAGUGAUGUUCGAACAGGUUUUAGUUUGCCAUAUAAUGACCCUUGGCAGCGUAUGGGAUAGG [Ex Theophylline B K4 13]
Condition not met

Determine whether this sequence has apparent KD of K4 kissing-loop reporter no lower than 400 nM: AAGGUAUCUAGAUGCUAGCAACAACUAGAUACCAGCAUCGAAAGAUGCCCUUGGCAGCUAGCAGUGAUGUUGCUAGCAAUAAGAA [Design4]
Condition not met

Reported apparent KD of K4 kissing-loop reporter at or above 400 nM? UAGUCCUAGUGAUGGUCAUCACGUGGUGGGCGAGGACCGGUACGGCCGCCACUCGACUUUGCAGUGAUGUUGCAAACCGGACAAU [Exclusion - Tryptophan A (Freestyle 19)]
Condition not met

Tell me whether apparent KD of K4 kissing-loop reporter is at least 400 nM here: AAAAUAAGCCAGUGAUGUUGGUAUACAGAUACCAGCGACGAAAGUCGCCCUUGGCAGCUGUGGACGUACAAAAUAAGUACGUCCU
Condition not met

Quick check, apparent KD of K4 kissing-loop reporter >= 400 nM? UGUAUGUGAUUUGAUACCAGACCAUCUUGUGAGAAAUGAGUGAUGUUUAUUUUGGUUUGGGUCCCUUGGCAGCAAAUCGCAUACU [KL-SSTheoB24]
Condition met

Please tell me: is the sequence CCUGUGUGUGAAGGAUAUAUUUCGCAUUAAAACUAGUGAUGUUGGUAAAUGGCACAAUCCGUAGCAAUAGAAGGUCACUCCGGAA [theeternabot_sameState_KL_FMN_B_22] at or over 400 nM in terms of apparent KD of K4 kissing-loop reporter?
Condition met
